Measured Kd by item
Biological target: T1, PUF4 RNA-binding domain (Saccharomyces cerevisiae, UniProt P25339 537-888)
T1 sequence: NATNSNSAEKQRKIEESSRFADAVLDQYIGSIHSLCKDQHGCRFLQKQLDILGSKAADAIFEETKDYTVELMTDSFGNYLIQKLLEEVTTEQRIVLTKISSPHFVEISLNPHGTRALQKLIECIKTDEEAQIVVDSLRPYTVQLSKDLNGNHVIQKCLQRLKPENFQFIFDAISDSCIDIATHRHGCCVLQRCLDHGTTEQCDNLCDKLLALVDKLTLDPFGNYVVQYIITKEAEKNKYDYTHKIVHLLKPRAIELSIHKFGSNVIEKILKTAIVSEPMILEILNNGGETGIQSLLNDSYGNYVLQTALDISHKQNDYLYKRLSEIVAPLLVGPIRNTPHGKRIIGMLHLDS
Test: Mg; RNA-MaP; 20 mM Na-HEPES pH 7.4, 30 mM KOAc, 0.75 mM MgCl2, 0.1% Tween-20, 5% glycerol, 0.1 mg/mL BSA, 2 mM DTT; 25 C; 0.0125-409.6 nM protein
Details: tags: N-His6-TEV cleaved; C-SNAP kept, Cy3B-labelled; label: tethered on chip by stalled RNA polymerase
Value expressed in µM; do not type the unit.

binder	numeric_readout
UCUCUUUGUAUUUUUAUUAUCUCUU (ssRNA) [Ie_S1_P5E.1_K5.1_C5.1_H5.1_A5.1_[+6TTT]_F5.1_T5.1]	0.00432
UCUCUUCCUAUAUAUUAUCUCUCUU (ssRNA) [Id_ii_S1_P4E.3_K4.2_C4.2_[T-1C]_H4.2_A4.1_F4.1_T4.2_[G10T]_[T11C]]	0.0185
Ic_S4_P5E.1_K5.1_C5.1_H5.1_A5.1_[T5A]_[T6C]_F5.1_[T8G]_[T9C]_[A10T]_T5.1 (ssRNA) RNA: UUUGACAACUGAUCGUUCUUUCUUGUAACAGCUUUCUUUCUCGAUCAGUUGUCUUU	0.661
UCUCUUUGUAAACUUCUCUU (ssRNA) [Ic_S1_P3E.1_K3.1_C3.1_H3.1_A3.1_[T5A]_F3.1_[T7C]_[A8T]_T3.1]	0.024
Id_iii_S2_P4E.8_K4.4_C4.3_H4.1_A4.2_F4.1_T4.2_[T11C] (ssRNA) RNA: UUUGAUUAAUAUGAUAUCGUUCUUUCUUCUUGUAUUUUAGCUUCUUUCUCGAUAUCAUAUUAAUCUUU	0.00142
Ic_S4_P4E.1_K4.1_C4.1_H4.1_A4.1_[T5C]_[A6T]_F4.1_[T8C]_[A9T]_T4.1 (ssRNA) RNA: UUUGACAACUGAUCGUUCUUUCUUGUACUUCUUUCUUUCUCGAUCAGUUGUCUUU	0.0325
Ic_S4_P5E.1_K5.1_C5.1_H5.1_A5.1_[T5C]_[T6A]_[A7T]_F5.1_[T8G]_[A10T]_T5.1 (ssRNA) RNA: UUUGACAACUGAUCGUUCUUUCUUGUACAUGUUUUCUUUCUCGAUCAGUUGUCUUU	0.00677
Ib_S4_P5E.1_K5.1_C5.1_H5.1_A5.1_[A7C]_F5.1_[T8G]_T5.1 (ssRNA) RNA: UUUGACAACUGAUCGUUCUUUCUUGUAUUCGUAUUCUUUCUCGAUCAGUUGUCUUU	0.0104
UCUCUUCUCCCUUGUAUAUAUAUCUCUU (ssRNA) [Ie_S1_P3E.2_K3.1_C3.2_[+-1CCCT]_H3.1_A3.1_F3.1_T3.2]	0.00261
UCUCUUUGUAUACCAUCUCUU (ssRNA) [Ib_S1_P4E.1_K4.1_C4.1_H4.1_A4.1_[T7C]_F4.1_[T8C]_T4.1]	0.0131

Please turn your attention to the following entry.
Query: # input binder: UCUCUUUUUUGUAUUAUUAUCUCUU (ssRNA) [Ie_S1_P5E.1_K5.1_C5.1_H5.1_[+1TTT]_A5.1_F5.1_T5.1] ; wanted: its Kd
Response: 0.00628

All figures here come from paper PMC9352680.
